Assay: Lipid nanoparticle size by dynamic light scattering (Malvern Zetasizer Nano ZS)
Assay type: physicochemical
Conditions: LNP: cationic lipid/DSPC/cholesterol/PEG-lipid 50:10:38.5:1.5, hEPO mRNA; Table 3
QUANTITY MEASURED: size nm (nm)

Previously resolved entries follow.
{"MOLECULE": "CCCCCCCCC(CCCCCCCC)COC(=O)CCCCCN(CCCCCC(=O)OCC(CCCCCCCC)CCCCCCCC)CCN(CCO)C1CC(c2ccccc2)C1 (stereo not drawn)", "QUANTITY MEASURED": "size nm", "ENDPOINT RESULT": 54.94}
{"MOLECULE": "CCCCCCCCC(CCCCCC)C(CCC)OC(=O)CCCCCN(CCCCCC(=O)OC(CCC)C(CCCCCC)CCCCCCCC)CCN(CCO)C1CCC1 (stereo not drawn)", "QUANTITY MEASURED": "size nm", "ENDPOINT RESULT": 66.39}
{"MOLECULE": "CCCCCCCCCCCOC(=O)CCCCCN(CCCCCC(=O)OCC(CCCCCCCC)CCCCCCCC)CCN(CCO)C1CCCC1", "QUANTITY MEASURED": "size nm", "ENDPOINT RESULT": 87.68}

I = CCCCCCCCC(CCCCCCCC)COC(=O)CCCCCN(CCCCCC(=O)OCC(CCCCCCCC)CCCCCCCC)CCN(CCO)C1CCC1
II = CCCCCCCCC(CCCCCCCC)COC(=O)CCCCCN(CCCCCC(=O)OCC(CCCCCCCC)CCCCCCCC)CCN(CCO)C1CCC(F)(F)CC1
// pick min by size nm: I , II Give the chosen item's label as your response.
II

---

Test: Lipid nanoparticle size by dynamic light scattering (Malvern Zetasizer Nano ZS)
Type: physicochemical
Conditions: LNP: cationic lipid/DSPC/cholesterol/PEG-lipid 50:10:38.5:1.5, hEPO mRNA; Table 3
QUANTITY MEASURED: polydispersity

{"COMPOUND": "CCCCCCC(CCCCCC)CNC(=O)CCCCCN(CCCCCC(=O)OCC(CCCCCC)CCCCCC)CCN(CCO)C1CCCC1", "QUANTITY MEASURED": "polydispersity", "ENDPOINT RESULT": 0.075}

P = CCCCCCCCC(CCCCCC)CNC(=O)CCCCCN(CCCCCC(=O)NCC(CCCCCC)CCCCCCCC)CCN(CCO)C1CC1 (stereo not shown) [Compound 110]
Q = CCCCCCCCC(CCCCCC)COC(=O)CCCCCN(CCCCCC(=O)OCC(CCCCCC)CCCCCCCC)CCN(CCO)C1CCSCC1 (stereo not shown)
Could you check which of P and Q has a smaller value for polydispersity? Choose, then provide that item's label.
P

---

Experiment: Apparent pKa of LNP formulations (TNS fluorescence assay)
Details: LNP cationic lipid/DSPC/cholesterol/DMG-PEG 50/10/38.5/1.5 mol %, Table 3
QUANTITY MEASURED: Apparant Pka

{"MOLECULE": "CCCCCCCCCCC(CCCCCC)COC(=O)CCCN(CCCC(=O)OCC(CCCCCC)CCCCCCCCCC)CCN(CCO)C1CCC1 (stereo not drawn)", "Apparant Pka": 5.93}
{"MOLECULE": "CCCCCCCCC(CCCCCC)CC(=O)NCCCCCN(CCCCCOC(=O)CC(CCCCCC)CCCCCCCC)CCN(CCO)C1CC1 (stereo not drawn)", "Apparant Pka": 6.72}
{"MOLECULE": "CCCCCCCCC(CCCCCCCC)COC(=O)CCOCCN(CCOCCC(=O)OCC(CCCCCCCC)CCCCCCCC)CCN(CCO)C1CCC1", "Apparant Pka": 6.406}
{"MOLECULE": "CCCCCCCCC(CCCCCC)COC(=O)CCCCCN(CCCCCC(=O)OCC(CCCCCC)CCCCCCCC)CCN(CCO)C1COC1 (stereo not drawn)", "Apparant Pka": 7.41}
{"MOLECULE": "CCCCCCCCCCCOC(=O)CCCCCN(CCCCCC(=O)NCC(CCCCCCCC)CCCCCCCC)CCN(CCO)C1CCC1", "Apparant Pka": 7.496}
{"MOLECULE": "CCCCC/C=C\\CCCC(=O)C(CC/C=C\\CCCCC)C(CCC/C=C\\CCCCC)OC(=O)CCCCCN(CCCCCC(=O)OCCC/C=C/CCCCC)CCN(CCO)C1CCC1 (stereo not drawn)", "Apparant Pka": 6.071}
